The values you see were collected from PubChem BioAssay (NCI).

Let's look at some compounds and their measured growth.
System: RPMI-8226 leukemia
measurement description: NCI-60 one-dose screen, 48 h (100 = growth as untreated, 0 = no growth, -100 = all killed)
measurement setup: 10 µM unless noted
This is part of a sample that, as a whole, favours compounds with a hit. Of some 83,000 tested, about 20% had one in any assay. Activity calls are given as the source filed them. The calls were made as follows: active = growth percent below 10; inactive = the rest.

compound	growth
CCc1ccc(NC(=O)N[C@@H](Cc2cc(F)cc(F)c2)C(=O)N[C@@H]2C(=O)N3C[C@H](O)C[C@H]3C(=O)N3CCOC[C@H]3C(=O)N[C@@H](C)C(=O)N3C[C@H](C)C[C@H]3C(=O)O[C@H]2C)cc1	17.2% (inactive)
CC1(C)CC[C@]2(C(=O)OC(=O)[C@]34CCC(C)(C)C[C@@H]3C3=CC[C@@H]5[C@@]6(C)CCC(=O)C(C)(C)[C@@H]6CC[C@@]5(C)[C@]3(C)CC4)CC[C@]3(C)C(=CC[C@@H]4[C@@]5(C)CCC(=O)C(C)(C)[C@@H]5CC[C@]43C)[C@H]2C1	61% [100 µM] (inactive)
O=C1NC(=O)C(Cc2ccccc2)(Cc2ccccc2)N1	91% (inactive)

###

Tested on: HS 578T breast
measurement description: NCI-60 one-dose screen, 48 h
measurement setup: 10 µM unless noted
Compounds without any hit were thinned out: in the full panel of roughly 83,000, 20% have a hit. The source made the active and inactive calls. The calls were made as follows: active = growth percent below 10; inactive = the rest.
Labels: active, inactive

molecule	answer label
C=C(C)[C@@H]1CC[C@]2(C(=O)NCCNCCNCCN)CC[C@]3(C)[C@H](CC[C@@H]4[C@@]5(C)CCC(=O)C(C)(C)[C@@H]5CC[C@]43C)[C@@H]12	inactive
CC1(C)[C@@H](NOCCCN)CC[C@]2(C)[C@H]3C(=O)C=C4[C@@H]5C[C@](C)(C(=O)O)CC[C@]5(C)CC[C@@]4(C)[C@]3(C)CC[C@@H]12	active
CC(C)C1=NOC(=O)C1=Cc1cn(-c2ccccc2)nc1-c1ccccc1	inactive
NC1=NC(=O)NC1(c1ccccc1)c1ccccc1	inactive
NS(=O)(=O)c1ccc(CCN2C(=O)/C(=C\c3ccccc3)C=C2c2ccc(Cl)cc2)cc1	inactive
O=C(O)c1cn(C2CC2)c2cc(N3CCN(Cc4c(O)ccc5ccccc45)CC3)c(F)cc2c1=O	active
CC(C)OC(=O)Nc1cc(F)c(F)cc1F	inactive
COc1ccc2nc3ccccc3c(NCCNCCO)c2c1	active
CC1Cc2c(Cl)ncnc2N(C)c2ccc(O)cc21 (stereo not drawn)	inactive
CC(C)CSc1ncnc2nc[nH]c12	inactive
COC(=O)[C@@H](NC(=O)NC(=O)NC(=O)CI)C(C)C	inactive
Cc1cc(C)c(O)c(CNCCCNCc2cc(C)cc(C)c2O)c1	inactive
O=C1Nc2ccccc2/C1=C/C(=O)c1ccc(N2CCCC2)cc1	inactive
O=C(Nc1cc(-c2cccnc2)nc(NCCCN2CCOCC2)n1)c1cc(Br)cc(C(F)(F)F)c1	inactive
CCCCC1COc2cccc3c2N1C=C/C3=C\C(=O)n1ccc2ccccc21 (stereo not drawn)	inactive
ClC1=C(Cl)C(Cl)=C(Cl)C1=Cc1ccccc1	active
CC(=O)Nc1ccc2nc3ccc(NC(C)=O)cc3[n+](-c3ccccc3)c2c1	inactive
CCN1c2ccccc2C(Cl)(c2ccc(N(C)C)cc2)c2ccccc21	inactive
CCN(CCO)CCC(=O)c1ccc([N+](=O)[O-])cc1	inactive
Cc1cccc(C[C@H](NC(=O)Nc2ccc(C)cc2F)C(=O)N[C@@H]2C(=O)N3C[C@H](O)C[C@H]3C(=O)N3CCN(C)C[C@H]3C(=O)N[C@@H](C)C(=O)N3C[C@H](C)C[C@H]3C(=O)O[C@H]2C)c1	inactive
CC1(C)C(=O)/C(=C\c2cccnc2)C[C@]2(C)[C@H]3CC[C@@H]4[C@H]5[C@H](C(=O)/C=C/c6cccnc6)CC[C@]5(C(=O)O)CC[C@@]4(C)[C@]3(C)CC[C@@H]12	active
CC(C)=CC/C=C(/C)[C@H]1CC[C@]2(C)[C@@H]1CC[C@@H]1[C@@]3(C)CCC(=O)NC(C)(C)[C@@H]3CC[C@]12C	active
Cc1cc[n+](CCCCCCCCCC[n+]2ccc(C)cc2)cc1	inactive
CCOC(=O)Nc1ccc2c(c1)/C(=N\NC(=S)NC)c1ccccc1-2	inactive
Nc1cc(N)c(N=Nc2ccc(S(=O)(=O)O)cc2)cc1N=Nc1ccc(-c2ccc(N=Nc3ccc(O)c(C(=O)O)c3)cc2)cc1	inactive
COc1ccc(-c2cc(-c3ccccc3)nc(NCCNc3ccnc4cc(Cl)ccc34)n2)cc1	active
CCCCC(CCCCCC(CCCC)C1NC(C)Cc2cc(OC)c(OC)cc21)C1NC(C)Cc2cc(OC)c(OC)cc21 (stereo not drawn)	active
C=C1C(=O)O[C@H]2[C@H]1CC/C(COC(=O)NCc1ccc(Cn3c(=O)sn(-c4ccc(Cl)cc4)c3=O)cc1)=C\CC[C@@]1(C)O[C@@H]21	inactive
CCOC(=O)c1c[nH]c2cc(OCC3CC3)c(OCC3CC3)cc2c1=O	inactive
CCNC(=O)N1CCc2c(Cl)c3c(c(OC)c2[C@@H]1[C@H]1OCc2c1ccc(OC)c2OC)OCCO3	inactive
O=C(O)c1cc([N+](=O)[O-])ccc1Br	inactive
CSc1nc2sc3cc(Cl)c(Cl)cc3n2c(=N)c1C#N	inactive
O=C(CCN1CCCCC1)c1ccc(Cl)cc1	inactive
O=C1NC(=O)c2cc([N+](=O)[O-])cc3cccc1c23	inactive
C[C@]12CCc3nc(Nc4ccccc4)sc3C1=CC[C@@H]1[C@@H]2CC[C@]2(C)/C(=N/NC(N)=S)CC[C@@H]12	inactive
CN(C)Cc1ccc[nH]1	inactive
CC(C)(C)c1cc(C(=O)Nc2ccc(C(=O)NCCN)cc2)cc(C(C)(C)C)c1	inactive
Nc1nc(N)c2c(n1)NC(c1ccc(F)cc1)C1CCc3ccccc3C1=N2 (stereo not drawn)	inactive

###

Test system: MALME-3M melanoma
measurement description: NCI-60 one-dose screen, 48 h
measurement setup: 10 µM unless noted
The panel holds about 83,000 compounds, 20% with a hit somewhere; the sample as a whole holds those more often. Activity calls are given as the source filed them. How the source made its calls: active means growth percent below 10; inactive means the rest.
Labels: y for active, n for inactive

molecule	answer label
CCc1cccc(Cl)c1	n
O=C1/C(=C\c2cccn2Cc2ccccc2)c2ccccc2N1c1c(Cl)cccc1Cl	n
Cc1ccc(N)c(O)c1	n
COc1ccc(-c2cc(-c3ccccc3)nc(SCCCCCC(=O)NO)n2)cc1	n
Cc1ccc(S(=O)(=O)Nc2ccccc2)cc1N	n
CCOC(=O)/C(C#N)=C(\C)CCc1ccccc1	n
Clc1ccccc1/C=N\Nc1ccccn1	n
CCN(CC)CCS(=O)(=O)CCNc1ccnc2cc(Cl)ccc12	y
CSc1cccc([N+](=O)[O-])c1	n
CN(C)CCOc1ccc(/C(=C(/CCCl)c2ccccc2)c2ccccc2)cc1	y
COc1ccc(CC(C#N)c2ccc(Cl)cc2)cc1 (stereo unspecified)	n
CCOC(=O)c1cnc2ccc(Br)cc2c1Nc1cccc(S(N)(=O)=O)c1	n
C[C@H]1[C@H](C)CC[C@]2(COC(=O)CCC(=O)O)CC[C@]3(C)C(=CC[C@@H]4[C@@]5(C)CCCNC(C)(C)[C@@H]5CC[C@]43C)[C@H]12	n
COc1cc(-c2nc(SCCC(C)C)nc(Nc3ccc(S(N)(=O)=O)cc3)c2C#N)cc(OC)c1OC	n
C#C[C@]1(O)CC[C@H]2[C@@H]3CC=C4c5nc(Nc6ccccc6[N+](=O)[O-])sc5CC[C@]4(C)[C@H]3CC[C@@]21C	n
Cc1cc(-c2ccc(N=Nc3c(S(=O)(=O)O)cc4cc(S(=O)(=O)O)cc(N)c4c3O)c(C)c2)ccc1N=Nc1cc(S(=O)(=O)O)c2ccccc2c1O	n
Cc1cccc(C[C@H](NC(=O)Nc2ccc(Cl)cc2F)C(=O)N[C@@H]2C(=O)N3C[C@H](OC(=O)CCN(C)C)C[C@H]3C(=O)N3CCCC[C@H]3C(=O)N[C@@H](C)C(=O)N3C[C@H](C)C[C@H]3C(=O)O[C@H]2C)c1	n
O=C1NC(=O)C(Cc2ccc(OCc3ccc(-c4cc(F)c(F)c(F)c4)cc3)cc2)S1 (stereo unspecified)	n
CCOc1cc(NC(=O)c2ccccc2)c(OCC)cc1N	n
CO[C@H]1CC[C@@]2(C)C(=CC[C@H]3[C@@H]4C[C@H](O)C[C@@]4(C)CC[C@@H]32)C1	n
C#C[C@]1(O)CC[C@H]2[C@@H]3CC=C4c5nc(Nc6ncccn6)sc5CC[C@]4(C)[C@H]3CC[C@@]21C	n
COc1cc(-c2cc(-c3ccc(Nc4ncnc5cc(Cl)ccc45)cc3)nc(N3CCCCC3)n2)cc(OC)c1OC	n
COc1ccc(/C=C/C(=C/c2c(O)[nH]c3cc(Br)ccc23)N=O)cc1	n
COc1ncc(-c2ccc3nccc(C#CCCCCC(=O)NO)c3c2)cc1NS(=O)(=O)c1ccc(F)cc1F	y
COc1cc(C)cc2oc3oc(=O)c(C(=O)c4cc5cc(Br)ccc5o4)cc3c(=O)c12	n
C[C@H]1[C@H](C)CC[C@]2(C(=O)N3CCN(C)CC3)CC[C@]3(C)C(=CC[C@@H]4[C@@]5(C)C/C(=C/c6ccco6)C(=O)C(C)(C)[C@@H]5CC[C@]43C)[C@H]12	n
CCOC(=O)C1=C(C(=O)c2ccc(Br)cc2)C(c2ccc(Br)cc2)NC(=S)N1 (stereo unspecified)	n
O=C1Cc2c(sc3c(F)cccc23)C(c2ccccc2[N+](=O)[O-])N1 (stereo unspecified)	n
CCCCOC(=O)c1cccc([N+](=O)[O-])c1	n
Cc1nn(-c2ccccc2)c(N2CCOCC2)c1-c1nc2ccc([N+](=O)[O-])cc2[nH]1	n
c1coc2occoc=2o1	n
CC1(C)CC[C@]2(C(=O)O)CC[C@]3(C)C(=CC[C@@H]4[C@@]5(C)C/C(=C/c6cccnc6)[C@H](O)C(C)(C)[C@@H]5CC[C@]43C)[C@@H]2C1	y
C=C(C)[C@@H]1CC[C@]2(C(N)=O)CC[C@]3(C)[C@H](CC[C@@H]4[C@@]5(C)C/C(=C/c6cccnc6)C(=O)C(C)(C)[C@@H]5CC[C@]43C)[C@@H]12	y
COc1cccc(-c2[nH]c(=S)ncc2C(=O)c2ccccc2)c1	n
CCCC(NC(=O)OCc1ccccc1)C(=O)O (stereo unspecified)	n
CC(C)=CCC[C@](C)(O)[C@H]1CC[C@]2(C)[C@@H]1CC[C@@H]1[C@@]3(C)CC[C@H](OC(=O)CCC(=O)O)C(C)(C)[C@@H]3CC[C@]12C	n
